measurement.protocol: Pharmacokinetic parameters in rat plasma
Assay type: in vivo, SD rats
test.context: SD, po, p.o. 5 mg/kg
reported.metric: Cmax (nM)
The reply should contain only the number, in nM.

# Cmax of C[C@@H]1CN(C(=O)[C@@H]2CN(C3CCOCC3)C[C@H]2c2ccc(F)cc2F)C[C@H](C)N1c1ccc(F)cc1 (single isomer, unassigned) [Compound 7] = 195

---

study.system: MC1R (Homo sapiens, UniProt Q01726)
Construct: expressed in transfected cells
Sequence (Q01726 whole entry): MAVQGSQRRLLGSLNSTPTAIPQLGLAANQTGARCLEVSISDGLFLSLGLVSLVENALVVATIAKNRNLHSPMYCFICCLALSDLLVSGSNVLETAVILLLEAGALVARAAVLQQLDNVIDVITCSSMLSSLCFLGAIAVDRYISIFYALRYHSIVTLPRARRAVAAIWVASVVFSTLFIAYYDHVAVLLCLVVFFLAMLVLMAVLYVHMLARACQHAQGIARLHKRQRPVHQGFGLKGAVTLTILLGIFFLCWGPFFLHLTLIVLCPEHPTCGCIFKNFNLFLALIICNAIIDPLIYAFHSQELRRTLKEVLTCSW
measurement.protocol: In vitro activity of MCR receptors, intracellular cAMP signal (HEK293T/MCR cell line), MC1R
Type: cell-based
test.context: cAMP, HEK293T/MCR cell line; read-out: MC1R EC50
reported.metric: EC50

Lab note: measured EC50 of CCC(C)(C)N1CC(C(=O)N2C[C@@H](C)N(c3ccc(F)cc3)[C@@H](C)C2)[C@H](c2ccc(F)cc2F)C1 (stereo partly shown) was 58 nM

Entry under test: C[C@@H]1CN(C(=O)C2CN(C3CCOC3)CC2c2ccc(F)cc2F)C[C@H](C)N1c1ccc(F)cc1 (single isomer, unassigned) [Compound 20a] . Its EC50 was 2010 nM

// sample CC1CC(N2CC(C(=O)N3C[C@@H](C)N(c4ccc(F)cc4)[C@@H](C)C3)C(c3ccc(F)cc3F)C2)CCO1 (single isomer, unassigned) [Compound 22a] , its EC50 was 790 nM

In plain terms, C[C@@H]1CN(C(=O)[C@@H]2CN(C3CCOCC3)C[C@H]2c2ccc(F)cc2F)C[C@H](C)N1c1ccc(F)cc1 (single isomer, unassigned) has a documented EC50 of 459 nM

---

measurement.protocol: Drug concentration in brain tissues of rats, oral gavage
Assay type: in vivo
test.context: SD, brain, rat, p.o. 20 mg/kg, 1 hour, read-out: Brain drug concentration
reported.metric: concentration at 1 h (µM)
Number only, in µM; omit the unit.

Field concentration at 1 h (entry C[C@@H]1CN(C(=O)[C@@H]2CN(C3CCOCC3)C[C@H]2c2ccc(F)cc2F)C[C@H](C)N1c1ccc(F)cc1 (single isomer, unassigned) ) reads 9.68

---

measurement.protocol: Drug concentration in brain tissues of rats, oral gavage
Format: in vivo
test.context: SD, brain/plasma, rat, p.o. 20 mg/kg, 0.5 hour
reported.metric: Kp uu at 0.5 h
// print number alone

So for C[C@@H]1CN(C(=O)[C@@H]2CN(C3CCOCC3)C[C@H]2c2ccc(F)cc2F)C[C@H](C)N1c1ccc(F)cc1 (single isomer, unassigned) , the logged Kp uu at 0.5 h turned out to be 1.5

---

study.system: MC3R (Homo sapiens)
Construct: expressed in transfected cells
Sequence (P41968 whole entry): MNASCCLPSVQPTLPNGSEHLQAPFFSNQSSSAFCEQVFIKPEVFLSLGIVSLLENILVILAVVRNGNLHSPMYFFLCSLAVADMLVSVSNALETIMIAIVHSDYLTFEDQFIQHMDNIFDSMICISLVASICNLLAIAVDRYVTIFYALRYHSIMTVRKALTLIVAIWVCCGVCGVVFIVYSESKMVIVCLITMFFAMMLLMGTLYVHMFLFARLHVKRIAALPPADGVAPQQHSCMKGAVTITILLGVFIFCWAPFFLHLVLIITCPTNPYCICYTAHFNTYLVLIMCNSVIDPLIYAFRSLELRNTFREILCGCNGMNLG
measurement.protocol: In vitro activity of MCR receptors, intracellular cAMP signal (HEK293T/MCR cell line), MC3R
Type: cell-based
Experimental: Test purpose: to evaluate the agonistic effect of the compound on MCRs by detecting intracellular cAMP signal changes. Cells were resuspended with 1×PBS+500 μM IBMX. 10 μL of the cell suspension was added into a 384-well plate to be tested, and the cell concentration was adjusted to 1×10^4 cells per well for later use. A pre-prepared solution of the compound to be tested was added, and dimethyl sulfoxide of the same volume was added to blank control wells. […]
reported.metric: pEC50
To interpret pEC50, take it as minus log10 of a concentration measured in moles per litre.

Known results for molecules:
[
  {
    "molecule": "C[C@@H]1CN(C(=O)C2CN(C3CCOC(C)(C)C3)CC2c2ccc(F)cc2F)C[C@H](C)N1c1ccc(F)cc1 (single isomer, unassigned) [Compound 21b]",
    "pEC50": 6.57
  },
  {
    "molecule": "C[C@@H]1CN(C(=O)[C@@H]2CN(C3CCOCC3)C[C@H]2c2ccc(F)cc2F)C[C@H](C)N1c1ccc(F)cc1 (single isomer, unassigned)",
    "pEC50": 5.38
  },
  {
    "molecule": "C[C@@H]1CN(C(=O)[C@@H]2CN(C3CCC3)C[C@H]2c2ccc(F)cc2F)C[C@H](C)N1c1ccc(F)cc1",
    "pEC50": 5.96
  },
  {
    "molecule": "C[C@@H]1CN(C(=O)[C@@H]2CN(C3CCCCC3)C[C@H]2c2ccc(F)cc2F)C[C@H](C)N1c1ccc(F)cc1",
    "pEC50": 6.70
  },
  {
    "molecule": "C[C@@H]1CN(C(=O)C2CN(C(C)(C)C)CC2c2ccc(F)cc2F)C[C@H](C)N1c1ccc(F)cc1 (single isomer, unassigned)",
    "pEC50": 5.62
  }
]

We now examine a further molecule.
pEC50 on MC3R (Homo sapiens) for C[C@@H]1CN(C(=O)C2CN(C3CCOC3)CC2c2ccc(F)cc2F)C[C@H](C)N1c1ccc(F)cc1 (single isomer, unassigned) [Compound 20a] is 5.51
